Known Trimeric HA Binding RLU of a selection of binders
- SYSTEM_TESTED: recombinant soluble homotrimeric HA, A/chicken/Vietnam/NCVD-016/08 (H5N1) (influenza A virus A/chicken/Vietnam/NCVD-016/2008 (H5N1))
- ASSAY_COMMENT: microarray, trimeric HA, transfection supernatant
- TEST_SETTINGS: remark: other sources report otherwise
Please state the figure in RLU; there is no need to write the unit.

The following binders have reported results that may help.
# BINDER, UNIT_DESCRIPTOR, Trimeric HA Binding RLU
data = [
    ("TCN-545 (5082_I15) (antibody, V domains shown) VH: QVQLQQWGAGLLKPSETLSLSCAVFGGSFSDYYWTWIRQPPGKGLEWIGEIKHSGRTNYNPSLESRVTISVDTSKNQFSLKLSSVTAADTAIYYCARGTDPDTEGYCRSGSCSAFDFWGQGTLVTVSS VL: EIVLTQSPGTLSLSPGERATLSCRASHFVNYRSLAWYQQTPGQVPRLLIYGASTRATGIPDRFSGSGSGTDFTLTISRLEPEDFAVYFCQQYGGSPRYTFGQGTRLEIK", "RLU", 3230),
    ("TCN-555 (5246_L16) (antibody, V domains shown) VH: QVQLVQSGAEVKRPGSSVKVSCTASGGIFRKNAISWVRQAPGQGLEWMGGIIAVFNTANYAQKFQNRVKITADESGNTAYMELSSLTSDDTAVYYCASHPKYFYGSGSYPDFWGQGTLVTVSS VL: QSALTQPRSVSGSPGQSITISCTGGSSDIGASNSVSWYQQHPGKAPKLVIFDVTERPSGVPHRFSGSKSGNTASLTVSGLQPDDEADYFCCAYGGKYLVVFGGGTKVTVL", "RLU", 35200),
]

Please find the next binder below.
Suppose we examine the binder TCN-540 (5060_F05) (antibody, V domains shown) VH: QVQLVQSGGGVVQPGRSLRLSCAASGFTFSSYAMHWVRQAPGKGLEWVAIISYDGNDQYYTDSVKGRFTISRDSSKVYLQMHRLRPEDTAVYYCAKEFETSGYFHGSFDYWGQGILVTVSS VL: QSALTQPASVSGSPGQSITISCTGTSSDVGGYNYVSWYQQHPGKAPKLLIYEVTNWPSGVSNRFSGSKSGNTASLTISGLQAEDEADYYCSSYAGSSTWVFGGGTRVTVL ; what Trimeric HA Binding RLU value has been reported?
1510
